Test: protein stability index of a GFP-peptide fusion (yeast GPS) (PSI 1-4); higher = more stable; sorted into four equal gates, so the index is relative within each strain
Condition Set: pdr5∆
// label = fulfilled if protein stability index is not less than 3, otherwise not fulfilled

Query: Decide: is the reported value of protein stability index for KGVATTREKVLEDKLRA [RRP46] equal to or greater than 3?
Reply: fulfilled

Query: Next entry: SPNFKNYLKYLEYWCNP [SOH1]
Reply: not fulfilled

Query: Moving on to NRANVSKDELREKLAEV [RPS24A]
Reply: fulfilled

Query: Moving on to the next sequence: HTIFSDVCKTRFNHLVT [YML031W/NDC1]
Reply: not fulfilled

Query: Can you handle QEHTIFTQLKKNIPKTR [SNU114] next?
Reply: not fulfilled

Further cases:
Query: Has RAGIIIAKLSVIPIRRG [RPS2] a recorded protein stability index greater than or equal to 3?
Reply: not fulfilled

Query: Can you check LESYLIVHHPYQSLKQI [SSN8] next?
Reply: not fulfilled

Query: Repeat for the following sequence: KVDIFEIPETGEYSVKL [FAS2]
Reply: fulfilled

Query: Would you mind doing KGIAKEHAKWGPAAAIE [RPB3] as well?
Reply: fulfilled

Query: Moving on to the next sequence: VSALDKCIKYSEKLITK [ECM29]
Reply: not fulfilled

Query: Follow-up entry: NFALTTLIDLVKHSPGA [ECM29]
Reply: not fulfilled
